- assay_target: P2X purinoceptor 7 (Mus musculus) (UniProt Q9Z1M0)
- Sequence (Q9Z1M0 whole entry): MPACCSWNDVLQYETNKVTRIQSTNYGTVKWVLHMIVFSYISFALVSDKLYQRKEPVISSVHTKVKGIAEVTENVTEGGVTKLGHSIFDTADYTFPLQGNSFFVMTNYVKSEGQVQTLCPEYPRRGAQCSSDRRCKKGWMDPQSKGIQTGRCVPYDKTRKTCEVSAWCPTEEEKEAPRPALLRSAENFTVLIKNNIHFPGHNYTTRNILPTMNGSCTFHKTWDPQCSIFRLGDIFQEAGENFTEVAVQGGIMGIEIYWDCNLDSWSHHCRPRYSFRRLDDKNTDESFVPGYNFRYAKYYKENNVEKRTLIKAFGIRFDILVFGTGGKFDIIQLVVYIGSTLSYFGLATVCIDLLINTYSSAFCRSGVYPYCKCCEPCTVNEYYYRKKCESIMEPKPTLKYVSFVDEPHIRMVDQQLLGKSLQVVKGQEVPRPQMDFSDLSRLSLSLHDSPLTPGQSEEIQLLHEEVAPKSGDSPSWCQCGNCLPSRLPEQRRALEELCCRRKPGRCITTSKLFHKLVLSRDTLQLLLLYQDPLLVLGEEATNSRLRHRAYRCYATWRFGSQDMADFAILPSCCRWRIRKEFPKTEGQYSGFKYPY
- assay_overview: Antagonist activity at mouse P2X7 receptor expressed in HEK293 cells assessed as inhibition of ATP-induced receptor pore formation at 1 uM by propidium iodide dye uptake based fluorescence analysis
- Type: cell-based
- condition_description: filed as antagonist
Returns 1 if the recorded inhibition is greater than or equal to 70%, and -1 otherwise.

[[record]]
structure = "CS(=O)(=O)Nc1cccc(-c2ccc(Cl)c(C(=O)NCc3cn(-c4cc(Cl)ccn4)nn3)c2)c1"
group = 1

[[record]]
structure = "CS(=O)(=O)c1ccc(-c2nc(C(=O)NCc3cn(-c4cc(F)ccn4)nn3)cs2)cc1"
group = -1

[[record]]
structure = "Nc1ccc(-c2ncc(C(=O)NCc3cn(-c4cc(Cl)ccn4)nn3)s2)cc1"
group = -1

[[record]]
structure = "CS(=O)(=O)c1cccc(-c2ccc(Cl)c(C(=O)NCc3cn(-c4cc(Cl)ccn4)nn3)c2)c1"
group = -1

[[record]]
structure = "COc1ccc(-c2ccc(Cl)c(C(=O)NCc3cn(-c4cc(Cl)ccn4)nn3)c2)cc1OC"
group = -1

[[record]]
structure = "CS(=O)(=O)c1ccc(-c2csc(C(=O)NCc3cn(-c4cc(Cl)ccn4)nn3)n2)cc1"
group = 1

[[record]]
structure = "O=C(NCc1cn(-c2cc(Cl)ccn2)nn1)c1cnc(-c2cccc(NS(=O)(=O)N3CCOCC3)c2)s1"
group = 1

[[record]]
structure = "CS(=O)(=O)c1ccc(-c2ncc(C(=O)NCc3cn(-c4cc(Br)ccn4)nn3)s2)cc1"
group = 1

[[record]]
structure = "O=C(NCc1cn(-c2cc(Cl)ccn2)nn1)c1cc(-c2cccc3ncccc23)ccc1Cl"
group = 1

